Would you mind telling me the reported CC50 of each entry?
Experiment: Resazurin cell viability assay run concomitantly with the fusion assays
Type: cell-based
Details: human, TZM-bl cells, in cell-cell fusion assay; approximated; read-out: Inhibition of Cell-Cell Fusion CC50

The molecule listed as COC(=O)c1cccc(Cn2ccc3ccc(-c4ccc5ccn(Cc6cccc(C(=O)O)c6)c5c4)cc32)c1 [Compound 1] has a reported CC50 of > 10 µM

Sure, the documented CC50 for CCOC(=O)c1cc(O)n(-c2ccc(C(=O)O)cc2)n1 [Compound 3] is > 100 µM

Input Cn1ncc2ccc(-c3ccc4cnn(Cc5ccc(F)c(C(=O)O)c5)c4c3)cc21 [Compound 2] . Output CC50: ≥ 113 µM

The molecule listed as Cn1ncc2ccc(-c3ccc4cnn(Cc5ccc(F)c(C(=O)Oc6c(F)c(F)c(S(=O)(=O)O)c(F)c6F)c5)c4c3)cc21 [Compound 2-STP] has a reported CC50 of ≥ 200 µM

Consider CCOC(=O)c1cc(O)n(-c2ccc(C(=O)Oc3c(F)c(F)c(S(=O)(=O)O)c(F)c3F)cc2)n1 [Compound 3-STP] . Its measured CC50 is > 40 µM

Note to self: CC50 recorded for COC(=O)c1cccc(Cn2ccc3ccc(-c4ccc5ccn(Cc6cccc(C(=O)Oc7c(F)c(F)c(S(=O)(=O)O)c(F)c7F)c6)c5c4)cc32)c1 [Compound 1-STP] was > 10 µM
